These data points were gathered from PubChem BioAssay (NCI).

Item-by-item account of growth
tested on: HS 578T breast; assay: NCI-60 one-dose screen, 48 h (100 = growth as untreated, 0 = no growth, -100 = all killed); conditions: 10 µM unless noted
The panel holds about 83,000 compounds, 20% with a hit somewhere; the sample as a whole holds those more often.

compound	growth / %
CCOC(=O)c1ccc(N=Cc2sc(=O)[nH]c2O)cc1	88.1
CS(=O)(=O)Nc1ccc(C(=O)NC(C(=O)NO)c2ccc(-c3cccc(F)c3)cc2)cc1 (stereo unspecified)	73
COc1c2ccoc2c(/C=C/C=O)c2oc(-c3ccccc3)cc(=O)c12	74.8
CCOc1cccc(/C=N\Nc2nc(=O)cc(C(=O)OC)s2)c1O	90.4
COc1cc(-c2c3c(c(Br)n2Cc2ccccc2)-c2nc(N)sc2CC3)cc(OC)c1OC	80
COc1cccc2c1C=C1CCCCC3=Cc4c(OC)cccc4OC13O2	42.8

* * *

test system: A549/ATCC NSCLC; assay: NCI-60 one-dose screen, 48 h; conditions: 10 µM unless noted
Compounds without any hit were thinned out: in the full panel of roughly 83,000, 20% have a hit. Active and inactive are the calls of the source. How the source made its calls: active means growth percent below 10; inactive means the rest.
Outcome codes: active, inactive

compound	target_or_system	assigned_category
O=S1(=O)N(Cc2ccccc2)[C@@H](Cc2ccccc2)[C@H](O)[C@H](O)[C@H](Cc2ccccc2)N1Cc1ccccc1	A549/ATCC NSCLC	active
NC(CCc1nc2ccccc2c(=O)[nH]1)C(=O)O (stereo not given)	A549/ATCC NSCLC	inactive
O=c1c2cccc(F)c2sc2c(N3CCNCC3)nc3ccccc3c12	A549/ATCC NSCLC	inactive
CCN1C(=O)N(CC)C2Nn3c(s/c(=C\c4ccccc4F)c3=O)=NC21 (stereo not given)	A549/ATCC NSCLC	inactive
O=c1nc2sc3nc4ccccc4cc3cc-2s1	A549/ATCC NSCLC	inactive

* * *

system: HOP-62 NSCLC; test: NCI-60 one-dose screen, 48 h (100 = growth as untreated, 0 = no growth, -100 = all killed); settings: 10 µM unless noted
Compounds without any hit were thinned out: in the full panel of roughly 83,000, 20% have a hit. Activity calls are given as the source filed them. Rule for the calls: active = growth percent below 10; inactive = the rest.
Item-by-item account of growth

molecule	growth
CNCCNc1nc2ccccc2c2c(=O)c3cccc(OC)c3sc12	34.1% (inactive)
CN=c1ccc2nc3ccc(N)cc3sc-2c1	29% (inactive)
CCN1C(=O)N(c2ccccc2)C2NN=c3s/c(=C4\C(=O)N(C(C)C)c5ccccc54)c(=O)n3C21 (stereo not given)	36.2% (inactive)
CCN(CC)CCCNc1ccnc2cc3ccccc3cc12	-9.44% (active)
COc1ccc(OC)c(N(CCN2C(=O)c3ccccc3C2=O)C(=O)CCl)c1	-3% (active)

* * *

Test system: 786-0 renal
Experiment: NCI-60 one-dose screen, 48 h
Details: 10 µM unless noted
Procedure: Cells are grown in 96 well plates and exposed to the test compound for 48 hours. Compounds are tested at a single concentration, which is 10^-5 M for most compounds. The reported endpoint is percent growth (GI% or GIPRCNT), where numbers from 0 - 100% represent growth inhibition, and numbers from -100% - 0 represent cell death. For example, a value of 40 represents 60% growth inhibition. A value of 0 means no net growth occurred over the course of the experiment. […]
Compounds without any hit were thinned out: in the full panel of roughly 83,000, 20% have a hit. Calls of active or inactive are those of the source. The calls were made as follows: active = growth percent below 10; inactive = the rest.
Outcome codes: Yes for active, No for inactive

compound	assigned_category
Cc1ccc2nc(NC(=O)CSC(=S)N3CCN(c4ccccc4)CC3)sc2c1	No
Cc1cccc(NC(=O)c2sc3nc4c(cc3c2N)CCCC4)c1C	No
COc1ccc(C2=Nn3c(NN)nnc3SC2)cc1	No
Cc1c(-c2csc(-n3nc(C(F)(F)F)cc3C(F)(F)F)n2)no[n+]1[O-]	No
CNCCNc1nc2ccccc2c2c(=O)c3cccc(OC)c3sc12	No
N#CC(C#N)=Cc1c(-c2ccccc2)[nH]c2ccccc12	No
COCCN(C(=O)Cc1cccs1)C(C(=O)NCc1ccc(OC)cc1)c1ccc(C(C)C)cc1 (stereo unspecified)	No
CCCCCCCCCCCCCCn1cc(C2=C(c3coc4ccc(OC)cc34)C(=O)NC2=O)c2ccccc21	No
CC(=O)c1ccc(Nc2nc(NCCO)nc(Nc3ccc(Cl)cc3)n2)cc1	No
O=c1oc2ccc(Cl)cc2c(=O)n1-c1ccc(I)cc1F	Yes
Cc1ccc2cc3c(N)c4c(C)ccc(C)c4nc3nc2c1	No
CCOC(=O)c1c(C=O)nc2ccccc2c1/C=C/c1ccc(Cl)cc1	No
O=C(NC(=S)Nc1cccc(NC(=S)NC(=O)c2ccccc2)c1)c1ccccc1	No
COc1ccc2occ(C3=C(c4c[nH]c5ccccc45)C(=O)NC3=O)c2c1	No
C=C1C(=O)O[C@H]2[C@H]1CC/C(COC(=O)/C=C\C(=O)O)=C\CC[C@@]1(C)O[C@@H]21	No
O=c1oc2ccc(Br)cc2c(=O)n1-c1ccc(Cl)cc1F	Yes
COc1ccc(/C=C2/SC(=O)N(CC(=O)N3CCN(c4cc5c(cc4F)c(=O)c(C(=O)O)cn5C4CC4)CC3)C2=O)cc1	No
COC(=O)c1cc2c(n1Cc1ccccc1)-c1oncc1CCC2	No
COc1cc(/C=C2\Oc3cc(OCCCN4CCCC4)ccc3C2=O)cc(OC)c1	No
O=c1oc2ccc(-c3ccc(F)cc3F)cc2c(=O)n1-c1ccc(Cl)c(C(F)(F)F)c1	No
O=C(NCCCN1CCC(N2CCCCC2)CC1)C1=Cc2cc(Br)ccc2OC1	No

* * *

tested on: NCI-H322M lung; assay: NCI-60 one-dose screen, 48 h; conditions: 10 µM unless noted
The panel holds about 83,000 compounds, 20% with a hit somewhere; the sample as a whole holds those more often. Calls of active or inactive are those of the source. The calls were made as follows: active = growth percent below 10; inactive = the rest.
Outcome codes: active, inactive

compound	assigned_category
COc1ccc(/C=C/C(=O)c2ccc(Nc3nc(NCCO)nc(Nc4ccc(Cl)cc4)n3)cc2)cc1	inactive
CC[C@]1(O)C[C@@H]2CN(CCc3c([nH]c4ccccc34)[C@@](C(=O)OC)(c3cc4c(cc3OC)N(C)[C@H]3[C@@](O)(C(=O)OC)[C@H](OC(C)=O)[C@]5(CC)C=CCN6CC[C@]43[C@@H]65)C2)C1	inactive
Clc1ccc(Nc2scc3[n+]2CCC3)cc1	inactive
COC(=O)/C(CCC=C(C)C)=C1\[C@@H](OC(C)=O)C[C@@]2(C)[C@H]1C[C@@H](O)[C@H]1[C@@]3(C)CC[C@H](NCCCNCCCCNCCCN)[C@@H](C)[C@@H]3CC[C@@]12C	inactive
Cc1ccc(CN2CCC(C(=O)Nc3ccc(-c4cc5ccccc5[nH]4)cc3)CC2)o1	inactive
COc1cc(C#N)cc2[nH]c(=O)oc12	inactive
CCOC(=O)c1cc2c(n1Cc1cc(OC)c(OC)c(OC)c1)-c1oncc1CCC2	inactive
CCN1C(=O)N(CC)C2C1NN=c1s/c(=C3\C(=O)N(C(C)C)c4ccccc43)c(=O)n12 (centres undefined)	inactive
CC(=O)n1cc(-c2c[nH]c3ccccc23)c(-c2ccc(Cl)cc2)n1	inactive
O=C(Nc1ccc(N2CCNCC2)cn1)c1[nH]ncc1Nc1ncnc2sc3c(c12)CCC3	inactive
CC1(O)COCCCCOc2c(CN)cccc2NC(=O)c2nc(cnc2N)-c2ccc(cc2)S(=O)(=O)C(C)(C)C1 (centres undefined)	active
Brc1ccc(Nc2nc3ccccc3nc2Nc2ccc(Br)cc2)cc1	active
COc1ccc(-c2nsc3c2NC(=O)CC3c2ccsc2)cc1 (centres undefined)	inactive
CCCCC1CCc2cccc3c(SCC(=O)N(C)c4ccc(Cl)cc4)cc[n+]1c23 (centres undefined)	inactive
Cc1ccc(C2CC(c3ccc(Nc4nc(NCCO)nc(Nc5ccc(Cl)cc5)n4)cc3)=NN2c2cc(Cl)cc(Cl)c2)cc1 (centres undefined)	inactive
CN1C(=O)N(C)C2(c3ccccc3)OC(=S)NC12c1ccccc1 (centres undefined)	inactive
O=c1oc2ccc(Br)cc2c(=O)n1-c1ccc(Br)cc1F	active
CCCCN1CCN(c2ccc3nc(-c4ccc5nc(-c6ccc(C(F)(F)F)cc6)[nH]c5c4)[nH]c3c2)CC1	active
CCn1c(-c2nonc2Nc2ccc(OC)cc2)nc2ccccc21	inactive

* * *

tested on: PC-3 prostate; assay: NCI-60 one-dose screen, 48 h (100 = growth as untreated, 0 = no growth, -100 = all killed); settings: 10 µM unless noted
This is part of a sample that, as a whole, favours compounds with a hit. Of some 83,000 tested, about 20% had one in any assay.
Definition: the class of an entry is the range in low-valued: < 50%; mid-valued: ≥ 50% and < 90%; high-valued: ≥ 90% that contains its growth.

compound	target_or_system	assigned_category
O=CCCCC(O)C=O (stereo not given)	PC-3 prostate	high-valued
CCOC(=O)C1=CN(C)C=C(C(=O)OCC)C1c1cc(Br)c(OCC)c(OC)c1	PC-3 prostate	low-valued
O=C(c1ccccc1)N(C(=S)NCCc1ccc(Cl)cc1)c1ccc(Cl)cc1	PC-3 prostate	mid-valued
Oc1c(CN2CCN(c3ccccc3F)CC2)cc(Br)c2cccnc12	PC-3 prostate	low-valued
COc1ccc(Cn2cc(Cn3cc(C=C4C(=O)NC(=O)NC4=O)c4ccccc43)nn2)cc1	PC-3 prostate	mid-valued
O=c1oc2ccc(-c3ccc(F)cc3F)cc2c(=O)n1-c1ccc(Cl)c(C(F)(F)F)c1	PC-3 prostate	low-valued
COc1ccc(-c2nnc(COc3ccc(C(=O)/C=C/c4ccco4)cc3)o2)cc1	PC-3 prostate	mid-valued
O=C(Nc1ccc(N2CCNCC2)cc1)c1[nH]ncc1Nc1cc(Oc2ccccc2)ncn1	PC-3 prostate	low-valued
COc1nc2c(c(=O)n1C)N=C1c3ccccc3C(=O)C1C(c1ccccc1)N2 (stereo not given)	PC-3 prostate	high-valued
